Consider the following IC50 data for Cytochrome P450 2C19 (Homo sapiens), collected from several reports.
metric: IC50

INSERT INTO results (compound, experimental_value) VALUES
  ('Cc1cc(Nc2ncc(Cl)c(Nc3cn(C)nc3S(=O)(=O)C(C)C)n2)c(OC2CC2)cc1C1CCC(NS(C)(=O)=O)CC1 (centres unmarked)', '> 10 µM'),
  ('CC[C@@H](C#N)NC(=O)c1ccc(-c2nc(Nc3cnn(C4CCN(C)CC4)c3)ncc2C)cc1', '> 50 µM'),
  ('C[C@@H](c1ccc(-c2cnc(C(=O)NC3CC3)nc2)cc1)N1CC[C@](CC(C)(C)O)(c2ccccc2)OC1=O', '12.5 µM'),
  ('CCOc1ncnc2[nH]cc(C(=O)c3ccc(Nc4ccc(OC)nc4)nc3F)c12', '5 to 10 µM'),
  ('COc1cc2c(NC3CCS(=O)(=O)CC3)nc(N3CCC(F)(F)CC3)nc2cc1C#CCN1CCCC1', '> 100 µM'),
  ('C[C@@H](c1ccc(-c2ccc(C(N)=O)cn2)cc1)N1CC[C@](CC(C)(C)O)(c2ccccc2)OC1=O', '> 50 µM'),
  ('C[C@@H](c1ccc(-c2cncc(S(C)(=O)=O)c2)cc1)N1CC[C@](CC(C)(C)O)(c2ccccc2)OC1=O', '> 50 µM'),
  ('CCc1ccc(Nc2ccc(C(=O)c3c[nH]c4ncnc(C5CC5)c34)c(F)n2)cn1', '> 10 µM'),
  ('CCOc1ccc(Nc2ccc(Cc3c[nH]c4ncc(C)cc34)c(F)n2)cn1', '> 10 µM'),
  ('CCc1ccc(NC(=O)c2cc(C(=O)c3cc(OC)ccc3O)coc2=N)cc1', '14.9 µM'),
  ('C[C@@H](c1ccccc1-c1ccc(Cl)nc1)n1cncc1C(=O)N1CCC2NCCO[C@@H]2C1 (some centres unmarked)', '> 10 µM'),
  ('Cc1cnc(Nc2cnn(C3CCN(CC(F)F)CC3)c2)nc1-c1ccc(C(=O)NCC#N)cc1', '> 50 µM'),
  ('COCCN1CCC(c2cc(OC3CC3)c(Nc3ncc(Cl)c(Nc4cn(C)nc4S(=O)(=O)C(C)C)n3)cc2C)CC1', '> 10 µM'),
  ('COCCNC(=O)C1=C[C@@](C)(c2cc(NC(=O)c3ccc(C#N)cn3)ccc2F)N=C(N)S1', '> 21 µM'),
  ('COCCC(c1cncn1[C@H](C)c1ccc(F)cc1)N1CCN(S(=O)(=O)c2cnc(N3CCN(C)CC3)s2)CC1 (single isomer, unassigned)', '> 10 µM'),
  ('C[C@H](c1ccc(F)cc1)n1cncc1CN1CCN(S(=O)(=O)c2cnc(N3CCN4C[C@H](O)CC[C@H]4C3)s2)CC1', '7.95 µM'),
  ('C=CC(=O)N1CCN(c2c(C#N)c(N3CC(N(C)C)C3)nc3c(F)c(-c4ccc(F)c5sc(N)nc45)c(Cl)cc23)CC1', '> 10 µM'),
  ('CCN1CCC(Nc2ncnc3[nH]cc(C(=O)c4ccc(Nc5ccc(OC)nc5)nc4F)c23)CC1', '5 to 10 µM'),
  ('C[C@@H](c1ccc(-c2ccc(C(=O)NC3CC3)nn2)cc1)N1CC[C@](CC(C)(C)O)(c2ccccc2)OC1=O', '14.5 µM'),
  ('CO[C@H]1[C@@H](CF)OC(N)=N[C@]1(C)c1cc(NC(=O)c2ncc(Cl)cc2Cl)ccc1F', '≥ 20 µM'),
  ('CCC(=O)c1ccc(Cl)cc1-c1cc(=O)n([C@@H](Cc2ccccc2)C(=O)Nc2ccc(C(=O)O)cc2)nc1OC', '> 50 µM'),
  ('CCC(=O)NC1CCOc2c(-c3cc4c(s3)N(C)C(=O)CC4)cncc21 (single isomer, unassigned)', '> 50 µM'),
  ('O=C(O)[C@H]1CCCN(S(=O)(=O)c2ccccc2C(F)(F)F)C1', '> 50 µM'),
  ('[2H]C([2H])(c1ccc2c(c1)OCO2)C([2H])([2H])N1CCCC(OC(c2ccccc2)c2ccccc2)C1 (centres unmarked)', '4 µM'),
  ('O=C(c1ccc(Nc2ccc(C3CC3)nc2)nc1F)c1c[nH]c2ncnc(NC3CC3)c12', '> 10 µM'),
  ('Cc1cc(Nc2ncc(Cl)c(Nc3cn(C)nc3S(=O)(=O)C(C)C)n2)c(OC2CC2)cc1C1CCN(C(=O)C(F)(F)F)CC1', '> 10 µM');
